- assay_summary: yeast display, Sf9 membrane polyspecificity reagent, FACS + sequencing; frameworks hold sequencing errors

residue_sequence: QVQLVESGGGLVQAGGSLRLSCAASGSTFRGYAMGWYRQAPGKERELVAAITGSGDRTRYADSVKGRFTISRDNAKNTVYIQMNSLKPEDTAVYYCAKFCPHWAYYSWGQGTQVTVSS
polyreactivity (PSR sort gate): high polyreactivity
--
residue_sequence: QVQLVESGGGLVQAGGSLRLSCAASGPIFPAYAMGWYRQAPGKERELVASIRRGGITYADSVKGRFTISRDNAKNTVYLQMNSLKPEDTAVYYCNADYRGWGYHMDYWGQGTQVTVSS
polyreactivity (PSR sort gate): low polyreactivity
--
residue_sequence: QVQLVESGGGLVQAGGSLRLSCAASGSTFCGYAMGWSRQAPGKEREFVATISISGGSTYYADSVKGRFTISRDNAKNTVYLQMNSLKPEDTAVYYCNADYYFSWGSIEDYWGQGTQVTVSS
polyreactivity (PSR sort gate): low polyreactivity
--
residue_sequence: QVQLVESGGGLVQAGGSLRLSCPASGRIFGTYPMGWSRQEPGKESELVARITRGSSTYYADSVKGRFTISRDNAKNTVYLQMNSLKPEDTAVYYCAAVGWGYSYRARYGYWGQGTQVTVSS
polyreactivity (PSR sort gate): high polyreactivity
--
residue_sequence: QVHLVESVGGLFQAGGSLRLSCAPSGYIYVANVKGWYRQAPGKERELVAAINRRTGITYYADSVKGRCTNSRDNAKNTVNLQMNSLKTEDTAVYYCAALAQSTTYTRPYDYWGQGTQVTVSS
polyreactivity (PSR sort gate): low polyreactivity
--
residue_sequence: QVQLVESGGGLVQAGGSLRLSSASSGFTFNSYAMGWYRQAPGKERELVAAIDTGDDITYYADSVKGRFTISRDNAKNTVYLQMNSLKPVDTAVYYCAAKSRRQYTVGLSSDYWGQGTQVTVSS
polyreactivity (PSR sort gate): high polyreactivity
--
residue_sequence: QVQLVESGGGLVQAGGSLRLSCAASGSTYNAMGWYRQAPGKEREFVAAISWGGGSTYYADSVKGRFTISRDNAKNTVYLQMNSLKPEDTAVYYCAKTPNYRIRHDYWGQGTQVTVSS
polyreactivity (PSR sort gate): low polyreactivity
--
residue_sequence: QVQLVESGGGLVQAGGSLRLSSAASGITFITYAMVWYRQAPGKERELVAAISSSGGSTYYADSVKGRFTFSRDNAKNTVYLKMNSLKPEDTAVYYCAAEYVWYFGWKYGYWGQGTQVTVSS
polyreactivity (PSR sort gate): high polyreactivity
--
residue_sequence: QVQLVESGGGLVHAGGSLRLSCDASGLKFRAYDMGRYRQAPGKERELVAAITSSSGSTYYADSVKGRFTISRDNAKNTVYLQMNSLKPEDTSVYYCNAYSTFGWYDYWGQGTQVTVSS
polyreactivity (PSR sort gate): low polyreactivity
--
residue_sequence: QVQLVESGGGLVQAGGSLRLSCAASGRTFRYYTKGWYRQAPGKERELVAAITYSGGSTYYADSVKGRFTISRDNAMNTVYLQMNSLKPVDTAVYYCAAKASGNYYYYWGQGTQVTVSS
polyreactivity (PSR sort gate): high polyreactivity
--
residue_sequence: QVQHVESGGGIVQAGGSLRLSCAASGSTFIYNAMGWYRQAPGKERELVAAIDWSGGDTYYADSVKGRFTISRDNAKNTVYLQMNCLKPEDTAVYYCATRWPHYGGYYYWGQGTQVTVSS
polyreactivity (PSR sort gate): high polyreactivity
--
residue_sequence: QVQLVESGGGLAQAGGSLRLSCAASGRIFSVNVMGWYRQAPGKERELVAAITWSVGSTYYADSVKGRFTISRDNAKNTVYLQMNSLKPEDTAVFYCAARVPPVYGRVGGYHYWGQGTQVTVSS
polyreactivity (PSR sort gate): low polyreactivity
--
residue_sequence: QVQLVESGGGLVQAGGSLRLSCAASGIIFNRYAMGWYRQAPGKERELVAAITYSGDNTYYADSVKGRFTISRDNAKNTVYLQMNSLKPEDTAVYYCAAVSSRGGDYYWGQGTQVTVSS
polyreactivity (PSR sort gate): high polyreactivity
--
residue_sequence: QVQLVESGGGLVQAGGSLRLSCAASGFIFASYTMGWYRQAPGKERELVASISRDGGRTSYADSVKGRFTISRDNAKNTVYLQMNSLKPEDTAVYYCAARYWLRSEYWGQGTQVTVSS
polyreactivity (PSR sort gate): high polyreactivity
--
residue_sequence: QVQVVESGGGLVQAGCSLRLSCAASGSTFQANDMGLYRQAPGKERELVAAISTGGSSTYYADSVKGRFTISRDNEKNTFFLQMNSLKPEDTAVYYCAVDGLGGREGYWGQGTQVTVSS
polyreactivity (PSR sort gate): high polyreactivity
--
residue_sequence: QVQLVESGGRLVQAGGSLRLSCAASGSIFLAYAMGWYRQAPGKEREFVAAISFSDGSTYYADSVKGRFTISRDNAKNTVYLQMNSLKPEDTAVYYCNKGASPDDYDYWGQGTQVTVSS
polyreactivity (PSR sort gate): low polyreactivity
--
residue_sequence: QVQLVESGGCLVQAGGSLRLSCAASGFTIWPNAMGWYRQAPGKERELVAAINWSGGATYYADSVKGRFTISRDNAKNSVYLHMNSLKPEDTAVYYCAAFSYDWYGGDEYWGKGTQVTVSS
polyreactivity (PSR sort gate): low polyreactivity
--
residue_sequence: QVQLVESGGGLVQAGGSLRLSCAASGFTFTGNAMGWYRPAPGKERELVAAISRSGGSTFYADSVKGRFTISRDNAKNTVYLQMNSLKPEDTAVYYCAARRRTLNYLYDYWGQGTQVTVSS
polyreactivity (PSR sort gate): high polyreactivity
--
residue_sequence: QVQLVESGGGLVQAGGSLRLSCAASGSTFGAYAMGWYRQAPGKERELVAAISRSGASTYYADSVKGRFTISRDNAKNTVYLQMNSLKPVDTAVYYCAAKIVSRYRVIYDYWGQGTQVTVSS
polyreactivity (PSR sort gate): high polyreactivity
--
residue_sequence: QVQLVESGGGLVQAGGSLRLTCAASGSTLDYYAMGWYRQAPGKERELVAAITQSGASTYYADSVKGRFTISRDNAKNPVYLQMNSLKPEDTAVYYCAAEDYTIYGGEYDYWGQGTQVTVSS
polyreactivity (PSR sort gate): low polyreactivity
--
residue_sequence: QVQLVESGGGLVQAGGSLRLSCAASGSIFGRYGMGWYRQAPGKERELVAAITSGTRTNYADSVKGRFTISRDNAKNTVYLQMNSLKPEDTAVYYCNALRLRGNYEYGYWGHGTQVTVSS
polyreactivity (PSR sort gate): low polyreactivity
